Reported activation values follow for various compounds
Experiment: qHTS assay for environmental chemicals that activate the Aryl hydrocarbon Receptor (AhR) signaling pathway (AID 651777); further: % of control where 0% means no effect; nearly all actives have a fitted effect of over 15% in size
Conditions: 1A2-DRE human hepatoma cells, luciferase, 24 h; stronger effect = higher value
Results filed as inconclusive are left out.
Give just the numeric value; % need not be written.

Please review the entries below; each comes with its answer.
> print(dat)
                                   compound  assay.result
1                           NNC(=O)c1ccncc1          4.86
2           Cc1nnc(NS(=O)(=O)c2ccc(N)cc2)s1        -0.461
3        OC(Cn1cncn1)(Cn1cncn1)c1ccc(F)cc1F         -1.75
4           Cc1cc(NS(=O)(=O)c2ccc(N)cc2)no1        -0.784
5  Nc1nc(N)c2nc(CNc3ccc(C(=O)NC(CCC(=O)O)C(=O)O)cc3)cnc2n1 (stereo unspecified)         -4.32

Problem: # get_value(readout='activation', item= O=C(O)c1cc(=O)[nH]c(=O)[nH]1 )
Result: 0.283

---

Assay: qHTS of pediatric cancer cell lines to identify multiple opportunities for drug repurposing: Primary screen for SJ-GBM2 cells (AID 1347091)
Details: SJ-GBM2 viability, CellTiter-Glo luminescence, 48 h; series mostly up to 46 µM
Records with an inconclusive call do not appear. Activity calls are given as the source filed them. The call rests on the fitted dose curve; in most records, active means well fitted cell-killing curve with a large enough effect; inconclusive means small, poorly fitted or top-dose-only effect; inactive means no such curve, though single readings can be large or run the other way.
Hello, when you answer, please use one of the following outcomes: active, inactive

Illustrative cases are given below, each with its answer.
> print(dat)
                                test.smiles  qualitative.label
1     COc1cc(NS(=O)(=O)c2ccc(N)cc2)nc(OC)n1           inactive
2  CCOC(=O)c1ccc(C#Cc2ccc3c(c2)C(C)(C)CCS3)nc1           inactive
3                           NNC(=O)c1ccncc1           inactive
4                    CC1=CC(=O)c2ccccc2C1=O             active
5  CC(C)OC(=O)OCOP(=O)(CO[C@H](C)Cn1cnc2c(N)ncnc21)OCOC(=O)OC(C)C           inactive

Let's switch to this compound now.
Problem: For O[C@@H](CNC[C@H](O)[C@H]1CCc2cc(F)ccc2O1)[C@@H]1CCc2cc(F)ccc2O1 , what call appears in the results of this test?
Result: active

---

Biological target: Glucocorticoid receptor (Homo sapiens) (UniProt P04150)
Sequence (P04150 whole entry, looked up): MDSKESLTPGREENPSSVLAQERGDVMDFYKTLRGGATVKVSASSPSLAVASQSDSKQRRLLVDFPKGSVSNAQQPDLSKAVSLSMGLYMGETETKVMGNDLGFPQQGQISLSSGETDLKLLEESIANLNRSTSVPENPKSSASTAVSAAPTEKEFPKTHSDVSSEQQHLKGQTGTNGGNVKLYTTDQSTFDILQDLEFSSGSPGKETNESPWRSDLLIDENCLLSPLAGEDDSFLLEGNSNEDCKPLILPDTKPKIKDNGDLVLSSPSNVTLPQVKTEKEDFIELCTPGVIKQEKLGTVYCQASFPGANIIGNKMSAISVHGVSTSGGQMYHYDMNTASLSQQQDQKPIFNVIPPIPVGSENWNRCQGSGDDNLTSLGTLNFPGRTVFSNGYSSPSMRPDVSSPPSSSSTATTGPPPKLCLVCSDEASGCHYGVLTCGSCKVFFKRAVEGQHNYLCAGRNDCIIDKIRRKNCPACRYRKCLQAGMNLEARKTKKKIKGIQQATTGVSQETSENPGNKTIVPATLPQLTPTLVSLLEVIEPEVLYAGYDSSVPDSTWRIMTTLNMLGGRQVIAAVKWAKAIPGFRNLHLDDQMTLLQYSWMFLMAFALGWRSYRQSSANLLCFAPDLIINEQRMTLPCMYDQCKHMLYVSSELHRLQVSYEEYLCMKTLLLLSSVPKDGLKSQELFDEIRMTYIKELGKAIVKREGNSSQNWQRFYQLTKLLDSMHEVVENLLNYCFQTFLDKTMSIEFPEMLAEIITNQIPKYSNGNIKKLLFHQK
Assay: GR-GFP Redistribution (AID 450); further: potency means the concentration at half of the fitted maximal effect
Settings: U2OS GR-GFP nuclear translocation, laser cytometry, 2 h
Calls of active or inactive are those of the source.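 How the source made its calls: active means compounds whose dose series gives a full or clear partial fitted curve of increased nuclear translocation; inconclusive means weak partial curve or effect only at the top dose; inactive means no dose-dependent translocation response.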
METRIC NAME: Potency

Please review the entries below; each comes with its answer.
> print(dat)
                                   molecule  metric.name          assay.result
1  N[C@@H](C(=O)N[C@@H]1C(=O)N2C(C(=O)O)=C(Cl)CS[C@H]12)c1ccccc1      Potency  > 20.6 µM (inactive)
2  CC[C@H](C)C(=O)O[C@H]1C[C@@H](C)C=C2C=C[C@H](C)[C@H](CC[C@@H]3C[C@@H](O)CC(=O)O3)[C@H]21      Potency  > 20.6 µM (inactive)
3      OCc1ccc(-c2nn(Cc3ccccc3)c3ccccc23)o1      Potency    > 46 µM (inactive)
4  Cn1c(=O)c2c(ncn2CC(O)CO)n(C)c1=O (stereo unspecified)      Potency  > 20.6 µM (inactive)
5           Cc1cc(NS(=O)(=O)c2ccc(N)cc2)no1      Potency  > 20.6 µM (inactive)

Problem: # get_value(readout='Potency', item= COC(=O)Nc1nc2ccc(Sc3ccccc3)cc2[nH]1 )
Result: > 20.6 µM (inactive)

Problem: Now the molecule COc1ccc2cc3[n+](cc2c1OC)CCc1cc2c(cc1-3)OCO2
Result: > 20.6 µM (inactive)

Problem: Now the molecule Nc1[nH]c(=O)ncc1F
Result: > 20.6 µM (inactive)

Problem: Now the molecule Cc1cccc(N(C)C(=S)Oc2ccc3ccccc3c2)c1
Result: > 20.6 µM (inactive)

Problem: Now the molecule CCCCOc1ccc(CC(=O)NO)cc1
Result: > 20.6 µM (inactive)

Problem: Now the molecule O=c1oc2c(O)c(O)cc3c(=O)oc4c(O)c(O)cc1c4c23
Result: > 46 µM (inactive)

Reference source: PubChem BioAssay (NCATS)
